Entry source: the C3SDB collision cross section collection

A collection of compounds and their measured collision cross section (N2)
conditions: [M+Na]+; instrument: DT; single field, calibrated with ESI Low Concentration Tuning Mix (Agilent)
METRIC_NAME: collision cross section (N2) (Å²)

In [3]: df
Out[3]:
                                    compound                   metric_name  observed_result
 0  C[N+](C)(C)C[C@@H](CC(=O)[O-])OC(=O)CCCC(=O)O  collision cross section (N2)            167.1
 1  N[C@@H](Cc1cc(I)c(Oc2ccc(O)c(I)c2)c(I)c1)C(=O)O  collision cross section (N2)            194.3
 2  Nc1ncnc2c1ncn2[C@@H]1O[C@H](COP(=O)(O)OP(=O)(O)O)[C@@H](O)[C@H]1O [ADENOSINE 5'-DIPHOSPHATE]  collision cross section (N2)            193.1
 3  Nc1nc(=O)c2ncn([C@@H]3O[C@H](CO)[C@@H](O)[C@H]3O)c2[nH]1  collision cross section (N2)            174.9
 4  OC[C@H]1O[C@H](OC[C@H]2OC(O)[C@H](O)[C@@H](O)[C@@H]2O)[C@H](O)[C@@H](O)[C@H]1O (some centres not stated)  collision cross section (N2)            177.3
 5  O=C(O)[C@H](O)[C@@H](O)[C@H](O)[C@H](O)COP(=O)(O)O [6-PHOSPHOGLUCONATE]  collision cross section (N2)            157.6
 6    O=C1O[C@H](CO)[C@@H](O)[C@H](O)[C@H]1O  collision cross section (N2)            144.7
 7  N[C@@H]1C(O)O[C@H](CO)[C@@H](O)[C@@H]1O (some centres not stated)  collision cross section (N2)            141.3
 8         N[C@@H](Cc1cc(I)c(O)c(I)c1)C(=O)O  collision cross section (N2)            165.2
 9  CC(=O)OCC(=O)[C@@]1(O)CC[C@H]2[C@@H]3CCC4=CC(=O)CC[C@]4(C)[C@H]3[C@@H](O)C[C@@]21C [CORTISOL 21-ACETATE]  collision cross section (N2)              203
10  Nc1ncnc2c1ncn2[C@@H]1O[C@H](CO)[C@@H](O)[C@H]1O  collision cross section (N2)            165.5
11  NC(CCSCC(N)C(=O)O)C(=O)O (configuration not stated)  collision cross section (N2)            147.1
12  CCCCCCCCCCCCCCCC(=O)OC(CC(=O)[O-])C[N+](C)(C)C (configuration not stated)  collision cross section (N2)            219.7
13  O=C(O)CC(C(=O)O)C(O)C(=O)O (configuration not stated) [ISOCITRATE]  collision cross section (N2)            142.7
14            C=C(CC(=O)O)C(=O)O [ITACONATE]  collision cross section (N2)            131.7
15  CC(=O)N[C@H]1[C@H]([C@H](O)[C@H](O)CO)OC(O)(C(=O)O)C[C@@H]1O (some centres not stated) [N-ACETYLNEURAMINATE]  collision cross section (N2)            168.7
16  O=C(O)[C@@H]1C[C@@H](O)CN1 [TRANS-4-HYDROXY-L-PROLINE]  collision cross section (N2)            139.3

====

Below, each entry is listed alongside its reported collision cross section (N2).
conditions: [M+H]+; instrument: TW; Major Mix IMS/Tof Calibration Kit (Waters)
METRIC_NAME: collision cross section (N2) (Å²)

In [3]: df
Out[3]:
                                   molecule  observed_result
0   Cc1ccc(-c2nc3ccc(C)cn3c2CC(=O)N(C)C)cc1            177.2
1  COc1cc(CCNCc2ccccc2OC)c(OC)cc1Cl [25C-NBOMe]            177.6
2  Fc1ccc(C(c2ccc(F)cc2)N2CCN(C/C=C/c3ccccc3)CC2)cc1            211.5
3                     COc1cc(CCN)c(OC)cc1Br            155.6
4  COC(=O)[C@@H]1CC2=CC(=O)CC[C@]2(C)[C@@]23O[C@@H]2C[C@@]2(C)[C@@H](CC[C@@]24CCC(=O)O4)[C@H]13            197.6
5  CC(C)NCC(O)COc1ccc(CC(N)=O)cc1 (centres undefined)            159.5
6  CCCCN1CCCCC1C(=O)Nc1c(C)cccc1C (centres undefined)            173.1
7  Fc1ccccc1C1=NCC(=S)N(CC(F)(F)F)c2ccc(Cl)cc21            174.9
8                      Clc1cccc(N2CCNCC2)c1            144.3

====

conditions: [M+Na]+; instrument: DT; single field, calibrated with ESI Low Concentration Tuning Mix (Agilent)
METRIC_NAME: collision cross section (N2) (Å²)

In [3]: df
Out[3]:
                                   compound  endpoint_unit  observed_result
0  CC(=O)N[C@@H](CCC(=O)O)C(=O)O [N-ACETYLGLUTAMATE]             Å²            142.4
1  O=C(O)C(O)COP(=O)(O)O (centres undefined) [3-PHOSPHOGLYCERATE]             Å²            139.4
2  Nc1ccn([C@@H]2O[C@H](CO)[C@@H](O)[C@H]2O)c(=O)n1             Å²            159.7
3  C[C@]12CCC(=O)C=C1CC[C@@H]1[C@@H]2C(=O)C[C@@]2(C)[C@H]1CC[C@]2(O)C(=O)CO             Å²            213.2
4  Cc1ncc(COP(=O)(O)O)c(C=O)c1O [PYRIDOXAL-PHOSPHATE]             Å²            160.8
5  Nc1nc(=O)c2ncn([C@@H]3O[C@H](COP(=O)(O)OP(=O)(O)O)[C@@H](O)[C@H]3O)c2[nH]1 [GUANOSINE DIPHOSPHATE]             Å²            188.4
6  O=C(O)[C@H]1C[C@@H](O)CN1 [CIS-4-HYDROXY-D-PROLINE]             Å²            130.6
7  NC(N)=N[C@@H](CC(=O)O)C(=O)O [GUANIDINOSUCCINATE]             Å²              148
8  NC(=O)NC1NC(=O)NC1=O (centres undefined)             Å²            142.2

====

conditions: [M+Na]+; instrument: DT; single field, calibrated with ESI Low Concentration Tuning Mix (Agilent)
METRIC_NAME: collision cross section (N2) (Å²)

In [3]: df
Out[3]:
                                   compound                   metric_name  observed_result
0  OC1OC[C@@H](O)[C@H](O)[C@H]1O (stereo not given in full)  collision cross section (N2)            134.9
1  O=c1ccn([C@@H]2O[C@H](COP(=O)(O)OP(=O)(O)OP(=O)(O)O)[C@@H](O)[C@H]2O)c(=O)[nH]1 [URIDINE TRIPHOSPHATE]  collision cross section (N2)            188.8
2     C[C@@](O)(CCO)CC(=O)[O-] [MEVALONATE]  collision cross section (N2)            132.9
3         N[C@@H](CSSC[C@H](N)C(=O)O)C(=O)O  collision cross section (N2)            151.2
4  O=C(O)[C@@H](O)[C@H](O)[C@H](O)[C@@H](O)C(=O)O [GALACTARATE]  collision cross section (N2)            146.9
5            N[C@@H](Cc1ccc(O)c(O)c1)C(=O)O  collision cross section (N2)            147.5
6    OC[C@@H](O)[C@H](O)[C@H](O)[C@@H](O)CO  collision cross section (N2)            142.2
7  O=C(O)CCCCCCCCCCCO [OMEGA-HYDROXYDODECANOATE]  collision cross section (N2)            160.3
8  OCC1(O)OC[C@@H](O)[C@@H](O)[C@H]1O (stereo not given in full)  collision cross section (N2)            137.6
9    NC(CSCC(=O)O)C(=O)O (stereo not given)  collision cross section (N2)            138.2
